Item-by-item account of pKi
- Target System: human PDE4A1 (Homo sapiens, UniProt P27815)
- Construct: made in house
- Sequence (P27815 1-647 isoform P27815-4): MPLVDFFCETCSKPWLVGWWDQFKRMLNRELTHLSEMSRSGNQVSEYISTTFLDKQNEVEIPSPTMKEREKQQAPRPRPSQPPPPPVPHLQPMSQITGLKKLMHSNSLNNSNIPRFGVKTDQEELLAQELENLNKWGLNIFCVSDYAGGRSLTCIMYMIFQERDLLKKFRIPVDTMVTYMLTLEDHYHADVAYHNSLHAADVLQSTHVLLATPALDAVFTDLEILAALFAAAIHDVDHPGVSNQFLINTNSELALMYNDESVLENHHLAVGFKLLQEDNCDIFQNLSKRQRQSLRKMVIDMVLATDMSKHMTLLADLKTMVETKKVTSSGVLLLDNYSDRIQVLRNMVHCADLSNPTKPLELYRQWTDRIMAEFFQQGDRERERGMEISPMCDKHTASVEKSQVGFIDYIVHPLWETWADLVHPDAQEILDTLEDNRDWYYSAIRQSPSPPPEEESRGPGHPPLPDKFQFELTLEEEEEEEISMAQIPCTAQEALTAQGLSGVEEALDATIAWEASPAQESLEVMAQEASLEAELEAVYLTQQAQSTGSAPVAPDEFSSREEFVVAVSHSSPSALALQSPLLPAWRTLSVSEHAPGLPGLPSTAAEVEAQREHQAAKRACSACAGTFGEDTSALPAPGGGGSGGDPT
- Test Protocol: Inhibition of cAMP hydrolysis by recombinant human PDE4A1
- Format: biochemical
- Experimental Context: Example 29; read-out: Ki, human PDE4A1
pKi: −log10 of the molar value.

Given the compound COc1ccc(F)c(CCCC2CCC(CCNCCCCCN3N=C(c4ccc(OC)c(OC)c4)C4CC=CC[C@H]4C3=O)O2)c1 (stereo partly drawn) , what is its reported pKi?
< 6.00

Given the compound COc1ccc(F)cc1CCC1CCC(CCNCCCCCN2N=C(c3ccc(OC)c(OC)c3)C3CC=CCC3C2=O)O1 (racemic) , what is its reported pKi?
< 6.00

Given the compound COc1ccc(C2=NNC(=O)[C@@H]3CC=CC[C@H]23)cc1OC (racemic) [Compound 19, reference compound] , what is its reported pKi?
< 6.00

* * *

- Target System: human PDE4B3 (Homo sapiens)
- Sequence (Q07343 1-721 isoform Q07343-3): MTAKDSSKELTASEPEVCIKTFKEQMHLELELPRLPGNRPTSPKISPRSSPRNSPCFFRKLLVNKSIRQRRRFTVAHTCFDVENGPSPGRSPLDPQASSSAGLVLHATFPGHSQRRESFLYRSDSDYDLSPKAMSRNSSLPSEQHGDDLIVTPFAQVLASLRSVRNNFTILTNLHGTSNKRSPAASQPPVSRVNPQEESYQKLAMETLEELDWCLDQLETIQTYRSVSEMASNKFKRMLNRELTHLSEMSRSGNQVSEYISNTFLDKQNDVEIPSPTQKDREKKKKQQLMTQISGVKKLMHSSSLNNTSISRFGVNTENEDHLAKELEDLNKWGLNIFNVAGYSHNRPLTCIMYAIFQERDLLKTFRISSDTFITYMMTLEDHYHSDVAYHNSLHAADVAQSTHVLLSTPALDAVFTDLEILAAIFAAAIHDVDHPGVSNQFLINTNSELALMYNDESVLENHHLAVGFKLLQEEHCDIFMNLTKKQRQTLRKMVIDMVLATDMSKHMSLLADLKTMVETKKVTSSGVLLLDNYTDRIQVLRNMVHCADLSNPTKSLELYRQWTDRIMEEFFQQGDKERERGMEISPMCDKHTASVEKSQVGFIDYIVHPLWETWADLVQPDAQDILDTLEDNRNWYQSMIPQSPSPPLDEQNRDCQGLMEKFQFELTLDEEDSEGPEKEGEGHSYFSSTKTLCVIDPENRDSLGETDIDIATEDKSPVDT
- Test Protocol: Inhibition of cAMP hydrolysis by recombinant human PDE4B3
- Experimental Context: Example 29
Measured Property: Ki (nM)
Respond with the bare value in nM.

Write down the reported Ki of COc1ccc(F)cc1CCC1CCC(CCNCCCCCN2N=C(c3ccc(OC)c(OC)c3)C3CC=CCC3C2=O)O1 (racemic) [Compound 21] , test system: human PDE4B3 (Homo sapiens).
199

Write down the reported Ki of COc1ccc(F)c(CCCC2CCC(CCNCCCCCN3N=C(c4ccc(OC)c(OC)c4)C4CC=CC[C@H]4C3=O)O2)c1 (stereo partly drawn) [Compound 22] , test system: human PDE4B3 (Homo sapiens).
500

Write down the reported Ki of COc1ccc(C2=NNC(=O)[C@@H]3CC=CC[C@H]23)cc1OC (racemic) [Compound 19, reference compound] , test system: human PDE4B3 (Homo sapiens).
250

* * *

- Test Protocol: Human liver microsome stability assay
- Format: in vitro ADME
- Experimental Context: human, liver microsomes, pH 7.4; Table 16; read-out: HLM t1/2
Item-by-item account of half-life at 40 μM

Example results:
Molecule	half-life at 40 μM
COc1ccc(C2=NNC(=O)[C@@H]3CC=CC[C@H]23)cc1OC (racemic) [Compound 19, reference compound]	> 1 h
COc1ccc(F)cc1CCC1CCC(CCNCCCCCN2N=C(c3ccc(OC)c(OC)c3)C3CC=CCC3C2=O)O1 (racemic) [Compound 21]	> 1 h

Given the molecule COc1ccc(F)c(CCCC2CCC(CCNCCCCCN3N=C(c4ccc(OC)c(OC)c4)C4CC=CC[C@H]4C3=O)O2)c1 (stereo partly drawn) [Compound 22] , what is its reported half-life at 40 μM?
> 1 h

* * *

- Target System: human PDE4D3 (Homo sapiens)
- Construct: made in house; host or cells: Cos 7 cells (construct and cells a gift from Dr. Conti, Stanford)
- Sequence (Q08499 1-673 isoform Q08499-2): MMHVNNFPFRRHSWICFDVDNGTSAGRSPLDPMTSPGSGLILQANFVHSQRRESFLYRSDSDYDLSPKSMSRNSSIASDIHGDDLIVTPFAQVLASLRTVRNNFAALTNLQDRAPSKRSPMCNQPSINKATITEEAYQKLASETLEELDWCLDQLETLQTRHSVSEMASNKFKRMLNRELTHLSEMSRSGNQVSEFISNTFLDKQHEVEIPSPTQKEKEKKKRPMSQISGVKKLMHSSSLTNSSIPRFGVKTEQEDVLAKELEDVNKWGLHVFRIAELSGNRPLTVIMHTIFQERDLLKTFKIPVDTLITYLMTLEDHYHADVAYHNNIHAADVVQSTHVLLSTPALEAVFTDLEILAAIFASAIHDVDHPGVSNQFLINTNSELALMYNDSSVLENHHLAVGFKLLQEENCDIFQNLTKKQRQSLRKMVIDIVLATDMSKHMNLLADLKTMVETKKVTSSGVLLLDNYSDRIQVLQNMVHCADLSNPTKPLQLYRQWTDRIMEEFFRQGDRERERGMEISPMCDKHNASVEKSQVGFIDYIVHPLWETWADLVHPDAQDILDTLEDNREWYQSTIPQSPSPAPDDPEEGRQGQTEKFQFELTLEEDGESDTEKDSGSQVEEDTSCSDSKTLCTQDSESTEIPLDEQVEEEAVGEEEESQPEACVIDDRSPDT
- Test Protocol: Inhibition of cAMP hydrolysis by recombinant human PDE4D3
- Format: biochemical
- Experimental Context: Table 5; recombinant human PDE 4D3; read-out: Ki
Measured Property: pKi
Please keep in mind that pKi is minus log10 of the molar concentration; only the number is needed.

Given the molecule COc1ccc(C2=NNC(=O)C3CC=CCC23)cc1OC (racemic) [Compound 19, reference compound] , what is its reported pKi?
8.20

* * *

- Test Protocol: Mouse liver microsome stability assay
- Format: in vitro ADME
- Experimental Context: NADPH
Measured Property: half life, mouse liver microsomes
Remember to follow the number with its unit.

Compound	half life, mouse liver microsomes
COc1ccc(F)cc1CCC1CCC(CCN)O1 (stereo not shown)	56 min
CNCCC1CCC(CCc2cc(F)ccc2OC)O1 (stereo not shown)	58 min
COc1ccc(C2=NNC(=O)[C@@H]3CC=CC[C@H]23)cc1OC (racemic) [Compound 19, reference compound]	211 min

Note: attention shifts to another entry.
Given the compound COc1ccc(F)cc1CCC1CCC(CCNCCCCCN2N=C(c3ccc(OC)c(OC)c3)C3CC=CCC3C2=O)O1 (racemic) , what is its reported half life, mouse liver microsomes?
154 min

* * *

Item-by-item account of MLM t1/2
- Test Protocol: Mouse liver microsome stability assay
- Assay type: in vitro ADME
- Experimental Context: Table 16
Remember to follow the number with its unit.

Compound	Result
COc1ccc(F)cc1CCC1CCC(CCN)O1 (stereo not shown)	0.933 h

Given the compound CNCCC1CCC(CCc2cc(F)ccc2OC)O1 (stereo not shown) , what is its reported MLM t1/2?
0.975 h

Given the compound COc1ccc(C2=NNC(=O)[C@@H]3CC=CC[C@H]23)cc1OC (racemic) [Compound 19, reference compound] , what is its reported MLM t1/2?
3.522 h

Given the compound COc1ccc(F)cc1CCC1CCC(CCNCCCCCN2N=C(c3ccc(OC)c(OC)c3)C3CC=CCC3C2=O)O1 (racemic) , what is its reported MLM t1/2?
2.565 h
